B1: NELF-E aptamer (parent)
chain: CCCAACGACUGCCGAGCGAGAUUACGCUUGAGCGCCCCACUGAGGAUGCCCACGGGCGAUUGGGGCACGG

variants of: B1; assay: HiTS-RAP; settings: with NELF-E (Drosophila)
pKd: −log10 of the molar value.
Threshold rule: pKd greater than or equal to 8 is Yes; below that, No.

Worked examples, 8 variants total:
[[record]]
mutant_code = "C25G G26U"
label_value = "Yes"

[[record]]
mutant_code = "G7U G54U"
label_value = "Yes"

[[record]]
mutant_code = "G20U A59G"
label_value = "No"

[[record]]
mutant_code = "C1U"
label_value = "Yes"

[[record]]
mutant_code = "A8G U10C"
label_value = "Yes"

[[record]]
mutant_code = "A5U U23A"
label_value = "Yes"

[[record]]
mutant_code = "C12G U41G"
label_value = "Yes"

[[record]]
mutant_code = "U10G A46U"
label_value = "No"


-- ask Kindly determine if pKd recorded for U29G A59U is above or exactly 8.
-- reply No

-- ask Kindly determine if pKd recorded for "A24G" is above or exactly 8.
-- reply Yes

-- ask Kindly determine if pKd recorded for "C3A" is above or exactly 8.
-- reply Yes

-- ask Kindly determine if pKd recorded for G16U A39U is above or exactly 8.
-- reply No

-- ask Kindly determine if pKd recorded for C9G A39U is above or exactly 8.
-- reply No

-- ask Kindly determine if pKd recorded for A19G A59G is above or exactly 8.
-- reply No

-- ask Kindly determine if pKd recorded for U22G U61A is above or exactly 8.
-- reply No

-- ask Kindly determine if pKd recorded for A43G A67U is above or exactly 8.
-- reply No

-- ask Kindly determine if pKd recorded for A43U A67U is above or exactly 8.
-- reply No
